# credit: patent US5696112A

System: Vasopressin V1
Test: Vasopressin V1 Antagonist Activity in Conscious Rats (vasopressin vasopressor response)
Assay type: in vivo, rat
Details: Rattus norvegicus; 10 mg/kg iv; read-out: Vasopressin vasopressor response, Max. % Inhibition
property: inhibition in vivo at 10 mg/kg (%)
Use % as the unit, but write only the number.

These recorded examples may help you get a feel for the data.
INSERT INTO results (compound, system_name, property, observed_result) VALUES
  ('Cc1ccccc1CC(=O)Nc1ccc(C(=O)N2CCCCc3sccc32)cc1 [Example 13]', 'Vasopressin V1', 'inhibition in vivo at 10 mg/kg', 80),
  ('O=C(Cc1ccccc1Cl)Nc1ccc(C(=O)N2CCCCc3sc(Cl)cc32)cc1 [Example 99]', 'Vasopressin V1', 'inhibition in vivo at 10 mg/kg', 58),
  ('O=C(Nc1ccc(C(=O)N2CCCCc3sccc32)cc1)C1CC=CCC1 (stereo not drawn) [Example 15]', 'Vasopressin V1', 'inhibition in vivo at 10 mg/kg', 69),
  ('O=C(Nc1ccc(C(=O)N2CCCCc3sc(Cl)cc32)cc1)c1c(Cl)cccc1Cl [Example 95]', 'Vasopressin V1', 'inhibition in vivo at 10 mg/kg', 61),
  ('Cc1ccccc1C(=O)Nc1ccc(C(=O)N2CCCCc3sc(Cl)cc32)cc1 [Example 96]', 'Vasopressin V1', 'inhibition in vivo at 10 mg/kg', 65);

From here, focus on the item given below.
Input: Respond only with inhibition in vivo at 10 mg/kg recorded for O=C(Cc1ccccc1Cl)Nc1ccc(C(=O)N2CCCCc3sccc32)cc1 [Example 2]
Output: 7.6

----------
Target: Rat Hepatic V1 Receptors (vasopressin V1) (Rattus norvegicus, UniProt P30560)
Construct: Rat liver plasma membranes expressing the vasopressin V1 receptor subtypes are isolated by sucrose density gradient; from tissue; host or cells: rat liver plasma membranes
Sequence (P30560 whole entry): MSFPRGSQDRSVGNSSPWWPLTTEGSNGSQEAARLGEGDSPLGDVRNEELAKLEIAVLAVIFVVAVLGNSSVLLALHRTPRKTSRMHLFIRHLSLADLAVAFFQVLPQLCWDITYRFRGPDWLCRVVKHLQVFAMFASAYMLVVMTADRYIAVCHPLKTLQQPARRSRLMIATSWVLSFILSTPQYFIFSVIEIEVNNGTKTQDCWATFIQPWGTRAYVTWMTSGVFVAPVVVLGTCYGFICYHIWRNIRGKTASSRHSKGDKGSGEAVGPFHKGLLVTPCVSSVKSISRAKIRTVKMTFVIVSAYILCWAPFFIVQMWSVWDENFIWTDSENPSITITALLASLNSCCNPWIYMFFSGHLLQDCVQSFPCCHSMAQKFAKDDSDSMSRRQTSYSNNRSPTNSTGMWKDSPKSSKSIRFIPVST
Test: Binding Assay to Rat Hepatic V1 Receptors
Details: rat hepatic V1, [3H]vasopressin
Simple rule here: IC50 less than 0.2 µM is class 1, otherwise class 0.

INSERT INTO assay_data (compound, answer_label) VALUES
  ('O=C(Nc1ccc(C(=O)N2CCCCc3sccc32)cc1)C1CC=CCC1 (stereo not drawn)', 'class 1'),
  ('O=C(Nc1ccc(C(=O)N2CCCCc3sccc32)cc1)c1ccc(Cl)cc1Cl', 'class 1');

Input: Given the entry O=C(Nc1ccc(C(=O)N2CCCCc3sccc32)cc1)c1ccc2[nH]ccc2c1 , would its reported IC50 be below 0.2 µM?
Output: class 0

Input: Given the entry Cc1cccc(C(=O)Nc2ccc(C(=O)N3CCCCc4sccc43)cc2)c1C , would its reported IC50 be below 0.2 µM?
Output: class 0

Input: Given the entry O=C(Cc1ccccc1Cl)Nc1ccc(C(=O)N2CCCCc3sccc32)cc1 , would its reported IC50 be below 0.2 µM?
Output: class 1

----------
Test system: Vasopressin V2
Test: Vasopressin V2 Antagonist Activity in Conscious Hydrated Rats
Type: in vivo, rat
Conditions: 10 mg/kg P.O.; AVP 0.4 μg/kg i.p.
Description: Vasopressin V2 Antagonist Activity in conscious Hydrated Rats Conscious hydrated rats are treated with compounds under study from 0.1 to 100 mg/kg orally or vehicle. Two to four rats are used for each compound. […] Urine volume is measured and osmolality analyzed by use of a Fiske One-Ten osmometer (Fiske Assoc., Norwood, Mass. USA). Urinary sodium, potassium, and chloride are analyzed by use of ion-specific electrodes in a Beckman E3 (Electrolyte 3) Analyzer. […]
# Osmolality per record follows
Use mOsm/kg as the unit, but write only the number.

These recorded examples may help you get a feel for the data.
INSERT INTO measurements (smiles_notation, unit_of_measure, observed_result) VALUES
  ('O=C(Nc1ccc(C(=O)N2CCCCc3sccc32)c(Cl)c1)c1ccc(F)cc1Cl', 'mOsm/kg', 512),
  ('O=C(Nc1ccc(C(=O)N2CCCCc3sc(Cl)cc32)cc1)c1ccc(Cl)cc1Cl', 'mOsm/kg', 1056),
  ('Cc1c(F)cccc1C(=O)Nc1ccc(C(=O)N2CCCCc3sc(Cl)cc32)cc1', 'mOsm/kg', 910),
  ('Cc1ccccc1C(=O)Nc1ccc(C(=O)N2CCCC(=O)c3sccc32)cc1', 'mOsm/kg', 1070),
  ('O=C(Nc1ccc(C(=O)N2CCCCc3sc(Cl)cc32)cc1)c1c(Cl)cccc1Cl', 'mOsm/kg', 1122);

Input: Respond only with Osmolality recorded for O=C(Nc1ccc(C(=O)N2CCCCc3sccc32)c(Cl)c1)c1ccc(Cl)cc1Cl
Output: 647

Input: Respond only with Osmolality recorded for Cc1ccc(F)cc1C(=O)Nc1ccc(C(=O)N2CCCCc3sccc32)c(Cl)c1
Output: 1070

Input: Respond only with Osmolality recorded for Cc1c(F)cccc1C(=O)Nc1ccc(C(=O)N2CCCC(=O)c3sccc32)cc1
Output: 1053

Input: Respond only with Osmolality recorded for O=C(Nc1ccc(C(=O)N2CCCC(=O)c3sccc32)cc1)c1ccc(Cl)cc1Cl
Output: 1266
